Ref: patent US20120083522A1

Tested on: human Factor XI mRNA
Assay: Dose-dependent inhibition in HepG2 cells, lipofectin (Example 4)
Assay type: cell-based
Conditions: 37.5 nM, 16 hours
Method: Cells were plated at a density of 10,000 cells per well and transfected using lipofectin reagent with 9.375 nM, 18.75 nM, 37.5 nM and 75 nM concentrations of antisense oligonucleotide, as specified in Table 9. After a treatment period of approximately 16 hours, RNA was isolated from the cells and Factor XI mRNA levels were measured by quantitative real-time PCR. […] Factor XI mRNA levels were adjusted according to total RNA content, as measured by RIBOGREEN®. […]
In the oligonucleotide strings, read from the 5' end, every base follows the letter of its sugar. An asterisk marks phosphorothioate; unmarked linkages are phosphodiester. Other units and linkages are bracketed, terminal groups are in braces. A string of capitals states the bases alone. e = 2'-O-(2-methoxyethyl) (MOE); [5mC] = 5-methylcytosine; d = 2'-deoxy (DNA)
Respond with Y for percent inhibition of Factor XI mRNA, relative to untreated control cells values of 60% and above, N for values below.

Ask | Does the reported percent inhibition of Factor XI mRNA, relative to untreated control cells for 416850 (antisense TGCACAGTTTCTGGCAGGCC; 5-10-5 gapmer, wing sugar chemistry not given here, further chemistry not given here) [compound 416850] fall at or above the 60% mark?
Reply | Y

Ask | Does the reported percent inhibition of Factor XI mRNA, relative to untreated control cells for 413467 (antisense eG*eG*eT*e[5mC]*e[5mC]*dA*d[5mC]*dA*dT*dA*dA*dA*dT*dG*dT*e[5mC]*eT*eT*eT*eG) [compound 413467] fall at or above the 60% mark?
Reply | Y

Ask | Does the reported percent inhibition of Factor XI mRNA, relative to untreated control cells for 416941 (antisense eG*eG*e[5mC]*dA*dG*d[5mC]*dG*dG*dA*d[5mC]*dG*dG*d[5mC]*dA*dT*dT*dG*eG*eT*eG) [compound 416941] fall at or above the 60% mark?
Reply | Y

Ask | Does the reported percent inhibition of Factor XI mRNA, relative to untreated control cells for 416908 (antisense eG*e[5mC]*eA*dA*d[5mC]*d[5mC]*dG*dG*dG*dA*dT*dG*dA*dT*dG*dA*dG*eT*eG*e[5mC]) [compound 416908] fall at or above the 60% mark?
Reply | Y

Ask | Does the reported percent inhibition of Factor XI mRNA, relative to untreated control cells for 416999 (antisense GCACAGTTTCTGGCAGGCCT; 2-13-5 gapmer, wing sugar chemistry not given here, further chemistry not given here) [compound 416999] fall at or above the 60% mark?
Reply | N

Ask | Does the reported percent inhibition of Factor XI mRNA, relative to untreated control cells for 413476 (antisense eT*eT*eG*eA*eG*dA*dT*dT*d[5mC]*dT*dT*dT*dG*dG*dG*e[5mC]*e[5mC]*eA*eT*eT) [compound 413476] fall at or above the 60% mark?
Reply | Y

Ask | Does the reported percent inhibition of Factor XI mRNA, relative to untreated control cells for 416973 (antisense eT*eT*dA*dT*dG*d[5mC]*d[5mC]*d[5mC]*dT*dT*d[5mC]*dA*dT*dG*dT*e[5mC]*eT*eA*eG*eG) [compound 416973] fall at or above the 60% mark?
Reply | Y

Ask | Does the reported percent inhibition of Factor XI mRNA, relative to untreated control cells for 416858 (antisense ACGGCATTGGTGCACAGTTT; 5-10-5 gapmer, wing sugar chemistry not given here, further chemistry not given here) [compound 416858] fall at or above the 60% mark?
Reply | N

Ask | Does the reported percent inhibition of Factor XI mRNA, relative to untreated control cells for 413474 (antisense eA*eG*e[5mC]*eA*eA*d[5mC]*d[5mC]*dG*dG*dG*dA*dT*dG*dA*dT*eG*eA*eG*eT*eG) [compound 413474] fall at or above the 60% mark?
Reply | N
